Where these numbers come from: the supplement of paper PMC10567573

B1: DVL3 (parent)
chain: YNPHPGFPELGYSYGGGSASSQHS

variants of: B1; test: protein stability index of a GFP-peptide fusion (GPS, HEK-293T) (PSI 1-6); higher = more stable; conditions: c terminus: a fixed tail appended;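 further: lentivirally expressed fusions sorted by FACS into six bins by GFP to DsRed ratio, PSI derived from sequencing read proportions per bin multiplied by bin number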
Mark 1.0 for reported protein stability index of 3 or greater; mark 0.0 for anything smaller.

sequence.content	answer.label
YNPHPGFPELGYSYGGGSASSKHS	1.0
YNCHPGFPELGYSYGGGSASSQHS	1.0
YNPHPGFPELGYSYGGGSYSSQHS	0.0
YNPHPGFPELGYSFGGGSASSQHS	0.0
YNPHPGFPELGYSYAGGSASSQHS	0.0
YNPHEGFPELGYSYGGGSASSQHS	1.0
YNPHPGFPELGDSYGGGSASSQHS	1.0
YNPHPGFPELGYLYGGGSASSQHS	0.0
YNPHPGFPRLGYSYGGGSASSQHS	0.0
YNPHPGFPEEGYSYGGGSASSQHS	1.0
YNPHPGFPELGYSYGGGSASLQHS	0.0
YNPHPGFPELGYSYGGGSASSQVS	0.0
YNPHPGFPELGYCYGGGSASSQHS	0.0
YNPHPGFPELGYSYGEGSASSQHS	1.0
YNPHPGFPELGYMYGGGSASSQHS	0.0
YNPHPGFPELGYSYGGGYASSQHS	0.0
YNSHPGFPELGYSYGGGSASSQHS	0.0
YNPHRGFPELGYSYGGGSASSQHS	0.0
